Reference for the values: paper PMC9323797

assay: Cytotoxicity on primary simian hepatocytes (DAPI count of host cell nuclei); format: cell-based, Macaca fascicularis; details: Macaca fascicularis, count of total cell nuclei, mean ± SD of three independent experiments
testReadout: CC50

Solved entries:
Cc1ccc(-c2cc3nc(NC(C)(C)C)nc(N)c3s2)cc1 [Compound 10a] :: > 50 µM
Cc1ccc(-c2cc3nc(NC(C)(C)C)nc(NCCCCO)c3s2)cc1 [Compound 10f] :: 17.7 µM
Cc1ccc(-c2cc3nc(NC(C)(C)C)nc(Cl)c3s2)cc1 :: > 100 µM

API: the following record is the query input.
**Query** // CC50 lookup, key: Cc1ccc(-c2cc3nc(NC(C)(C)C)nc(I)c3s2)cc1
**Result** > 100 µM

----------
Tested on: P. falciparum K1
Test: Blood-stage antiplasmodial evaluation (SYBR Green I fluorescence, 72 h)
Type: cell-based, Plasmodium falciparum
Details: Plasmodium falciparum; erythrocytic stage P. falciparum K1; read-out: IC50 (activity on Pf. K1)
Experimental: A K1 culture-adapted P. falciparum strain resistant to chloroquine, pyrimethamine, and proguanil was used in an in vitro culture. It was maintained in a continuous culture, as described previously by Trager and Jensen. […] The P. falciparum drug susceptibility test was carried out by comparing quantities of DNA in treated and control cultures of parasite in human erythrocytes, according to a SYBR Green I fluorescence-based method using a 96-well fluorescence plate reader. […]
testReadout: IC50

Cc1ccc(-c2cc3nc(NC(C)(C)C)nc(NC(C)C)c3s2)cc1 [Compound 10e] :: ~2000 nM

**Query** // IC50 lookup, key: Cc1ccc(-c2cc3nc(NC(C)(C)C)nc(NN)c3s2)cc1 [Compound 10i]
**Result** ~2000 nM

----------
Experiment: Cytotoxicity on primary simian hepatocytes (DAPI count of host cell nuclei)
Format: cell-based, Macaca fascicularis
Conditions: Macaca fascicularis, count of total cell nuclei, mean ± SD of three independent experiments
Procedure: Primary simian hepatocytes were isolated from liver segments collected from healthy Macaca fascicularis from CEA, Fontenay aux Roses, France. […] Sporozoites of P. berghei were re-suspended in the above complete medium used for the hepatocytes culture. […] The parasite size reduction was calculated on the average object area using the total surface area of each selected object (μm^2). […] All values were expressed as means and standard deviations (SD).
The entries below come with measured CC50 values attached.
Record the value in µM, omitting the unit from your answer.

**Query** // CC50 lookup, key: COCCNc1nc(NC(C)(C)C)nc2cc(-c3ccc(C)cc3)sc12 [Compound 10g]
**Result** 7.8

**Query** // CC50 lookup, key: CNc1nc(NC(C)(C)C)nc2cc(-c3ccc(C)cc3)sc12 [Compound 10c]
**Result** 31.5

**Query** // CC50 lookup, key: CCCNc1nc(NC(C)(C)C)nc2cc(-c3ccc(C)cc3)sc12 [Compound 10d]
**Result** 22

----------
test system: P. falciparum K1; test: Blood-stage antiplasmodial evaluation (SYBR Green I fluorescence, 72 h); assay type: cell-based, Plasmodium falciparum; conditions: asexual blood stages, drug-resistant K1 strain, 72 h incubation, mean ± SD of three independent experiments; read-out: P. falciparum K1 EC50
testReadout: EC50 (nM)
Record the value in nM, omitting the unit from your answer.

**Query** // EC50 lookup, key: Cc1ccc(-c2cc3nc(NC(C)(C)C)nc(N)c3s2)cc1 [Compound 10a]
**Result** 1400
